Reference source: patent US12226414B2

biological target: aldehyde oxidase (AO) (Homo sapiens (Human), UniProt Q06278); assay: in vitro; settings: human liver cytosol
measurement name: microsomal CLint at 0.5 μM

// query Can you look up the measured microsomal CLint at 0.5 μM of "CCN(C(C)=O)c1cccc(-c2ccnc3c(C#N)cnn23)c1" for me?
// result 3.1 µL/min/mg

---

pIC50: −log10 of the molar value.
Record: pIC50 reported on PIK3Cβ (p110β) (Homo sapiens (Human)).
Sequence (P42338 whole entry, looked up): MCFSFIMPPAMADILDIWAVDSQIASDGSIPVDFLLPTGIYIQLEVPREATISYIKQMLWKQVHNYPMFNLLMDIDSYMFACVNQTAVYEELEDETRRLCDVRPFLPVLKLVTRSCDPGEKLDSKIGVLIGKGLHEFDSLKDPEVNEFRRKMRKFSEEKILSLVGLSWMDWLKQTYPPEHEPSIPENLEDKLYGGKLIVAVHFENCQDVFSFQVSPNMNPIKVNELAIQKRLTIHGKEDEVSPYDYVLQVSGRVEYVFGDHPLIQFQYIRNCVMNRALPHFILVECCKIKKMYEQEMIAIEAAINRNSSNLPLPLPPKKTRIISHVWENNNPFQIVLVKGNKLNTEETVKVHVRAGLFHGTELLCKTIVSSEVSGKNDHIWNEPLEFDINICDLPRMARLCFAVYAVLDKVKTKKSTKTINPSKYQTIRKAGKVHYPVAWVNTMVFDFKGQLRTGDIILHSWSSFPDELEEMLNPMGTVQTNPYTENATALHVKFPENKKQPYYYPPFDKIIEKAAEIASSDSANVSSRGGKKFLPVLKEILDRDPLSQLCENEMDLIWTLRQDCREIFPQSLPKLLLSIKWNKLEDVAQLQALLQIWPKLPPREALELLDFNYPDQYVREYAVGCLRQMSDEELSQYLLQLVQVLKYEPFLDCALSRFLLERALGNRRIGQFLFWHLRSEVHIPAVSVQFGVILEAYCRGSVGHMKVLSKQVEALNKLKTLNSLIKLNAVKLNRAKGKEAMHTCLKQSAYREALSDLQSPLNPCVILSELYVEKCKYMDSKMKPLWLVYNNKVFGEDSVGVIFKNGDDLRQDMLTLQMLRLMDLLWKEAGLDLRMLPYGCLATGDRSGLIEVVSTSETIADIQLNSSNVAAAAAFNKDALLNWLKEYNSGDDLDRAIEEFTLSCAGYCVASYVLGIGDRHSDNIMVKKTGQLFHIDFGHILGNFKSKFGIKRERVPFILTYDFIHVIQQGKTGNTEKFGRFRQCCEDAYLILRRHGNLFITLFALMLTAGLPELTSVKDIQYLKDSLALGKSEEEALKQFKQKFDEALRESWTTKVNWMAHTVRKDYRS
Sequence (P27986 whole entry partner, looked up): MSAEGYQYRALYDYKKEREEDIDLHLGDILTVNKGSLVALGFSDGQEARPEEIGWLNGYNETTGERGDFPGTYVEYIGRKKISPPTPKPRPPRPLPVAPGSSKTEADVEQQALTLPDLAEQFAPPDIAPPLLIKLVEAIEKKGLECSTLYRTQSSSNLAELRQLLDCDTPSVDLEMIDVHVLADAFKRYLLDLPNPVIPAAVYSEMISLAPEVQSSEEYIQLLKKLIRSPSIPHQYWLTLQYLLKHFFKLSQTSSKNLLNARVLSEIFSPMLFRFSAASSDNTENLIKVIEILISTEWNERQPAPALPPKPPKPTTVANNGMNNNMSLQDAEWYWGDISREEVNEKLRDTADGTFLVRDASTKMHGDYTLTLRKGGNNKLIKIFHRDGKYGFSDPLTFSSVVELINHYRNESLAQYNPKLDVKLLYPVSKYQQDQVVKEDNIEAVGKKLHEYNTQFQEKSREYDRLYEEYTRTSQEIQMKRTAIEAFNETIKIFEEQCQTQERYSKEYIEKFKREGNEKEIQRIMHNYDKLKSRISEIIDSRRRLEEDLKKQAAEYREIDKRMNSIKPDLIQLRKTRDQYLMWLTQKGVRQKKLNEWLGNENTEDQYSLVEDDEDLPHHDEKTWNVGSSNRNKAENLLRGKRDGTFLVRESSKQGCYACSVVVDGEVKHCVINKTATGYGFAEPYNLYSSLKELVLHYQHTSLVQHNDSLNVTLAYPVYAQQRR

// query Which pIC50 value belongs to CC(C)n1c(=O)n(C)c2nnc3cc(F)c(-c4ccc(N5CCC(N(C)C)CC5)nc4)cc3c21 [Example 4] ?
// result < 5.00

// query Entry under review: CC(C)n1c(=O)n(C)c2nnc3cc(F)c(-c4ccc(COCCN5CC6CC6C5)nc4)cc3c21 (centres unmarked) [Example 11] . Reported pIC50?
// result < 5.00

// query pIC50 value for entry CC(C)n1c(=O)n(C)c2nnc3cc(F)c(-c4ccc(OCCCN(C)C)nc4)cc3c21 [Example 2]
// result < 5.00

// query I have this compound here, CC(C)n1c(=O)n(C)c2nnc3cc(F)c(-c4ccc(C(=O)NCCN(C)C)nc4)cc3c21 [Example 12] , and I need its recorded pIC50.
// result < 5.00

// query Record request: pIC50 value, item CC(C)n1c(=O)n(C)c2nnc3cc(F)c(-c4ccc(OCCCN5CCCCC5)nc4)cc3c21 [Example 1]
// result < 5.00

// query Recorded pIC50 of CC(C)n1c(=O)n(C)c2nnc3cc(F)c(-c4ccc(COCCN5CCCCC5)nc4)cc3c21 [Example 7] , please.
// result < 5.00

// query Reported pIC50, compound CC(C)n1c(=O)n(C)c2nnc3cc(F)c(-c4ccc(N5CCC(CN(C)C)C5)nc4)cc3c21 (centres unmarked) [Example 5] : ____
// result < 5.00

// query I'd like to know its pIC50. The compound in question is CC(C)n1c(=O)n(C)c2nnc3cc(F)c(-c4ccc(OCCCN5CCC(F)CC5)nc4)cc3c21 [Example 13]
// result < 5.00

// query # lookup: pIC50 of CC(C)n1c(=O)n(C)c2nnc3cc(F)c(-c4ccc(OCCCN5CC6CC6C5)nc4)cc3c21 (centres unmarked) [Example 16]
// result < 5.00

// query Which pIC50 value belongs to CC(C)n1c(=O)n(C)c2nnc3cc(F)c(-c4ccc(COCCN5CCC(F)CC5)nc4)cc3c21 [Example 10] ?
// result < 5.00

// query Could you tell me which pIC50 is on file for CC(C)n1c(=O)n(C)c2nnc3cc(F)c(-c4ccc(OCCCN5CCCC5)nc4)cc3c21 [Example 3] ?
// result < 5.00

---

target: ATM in SN38 treated HT-29 cells (Homo sapiens (Human), UniProt Q13315); assay: ATM SN-38 HT-29 cellular potency assay
Sequence (Q13315 whole entry, looked up): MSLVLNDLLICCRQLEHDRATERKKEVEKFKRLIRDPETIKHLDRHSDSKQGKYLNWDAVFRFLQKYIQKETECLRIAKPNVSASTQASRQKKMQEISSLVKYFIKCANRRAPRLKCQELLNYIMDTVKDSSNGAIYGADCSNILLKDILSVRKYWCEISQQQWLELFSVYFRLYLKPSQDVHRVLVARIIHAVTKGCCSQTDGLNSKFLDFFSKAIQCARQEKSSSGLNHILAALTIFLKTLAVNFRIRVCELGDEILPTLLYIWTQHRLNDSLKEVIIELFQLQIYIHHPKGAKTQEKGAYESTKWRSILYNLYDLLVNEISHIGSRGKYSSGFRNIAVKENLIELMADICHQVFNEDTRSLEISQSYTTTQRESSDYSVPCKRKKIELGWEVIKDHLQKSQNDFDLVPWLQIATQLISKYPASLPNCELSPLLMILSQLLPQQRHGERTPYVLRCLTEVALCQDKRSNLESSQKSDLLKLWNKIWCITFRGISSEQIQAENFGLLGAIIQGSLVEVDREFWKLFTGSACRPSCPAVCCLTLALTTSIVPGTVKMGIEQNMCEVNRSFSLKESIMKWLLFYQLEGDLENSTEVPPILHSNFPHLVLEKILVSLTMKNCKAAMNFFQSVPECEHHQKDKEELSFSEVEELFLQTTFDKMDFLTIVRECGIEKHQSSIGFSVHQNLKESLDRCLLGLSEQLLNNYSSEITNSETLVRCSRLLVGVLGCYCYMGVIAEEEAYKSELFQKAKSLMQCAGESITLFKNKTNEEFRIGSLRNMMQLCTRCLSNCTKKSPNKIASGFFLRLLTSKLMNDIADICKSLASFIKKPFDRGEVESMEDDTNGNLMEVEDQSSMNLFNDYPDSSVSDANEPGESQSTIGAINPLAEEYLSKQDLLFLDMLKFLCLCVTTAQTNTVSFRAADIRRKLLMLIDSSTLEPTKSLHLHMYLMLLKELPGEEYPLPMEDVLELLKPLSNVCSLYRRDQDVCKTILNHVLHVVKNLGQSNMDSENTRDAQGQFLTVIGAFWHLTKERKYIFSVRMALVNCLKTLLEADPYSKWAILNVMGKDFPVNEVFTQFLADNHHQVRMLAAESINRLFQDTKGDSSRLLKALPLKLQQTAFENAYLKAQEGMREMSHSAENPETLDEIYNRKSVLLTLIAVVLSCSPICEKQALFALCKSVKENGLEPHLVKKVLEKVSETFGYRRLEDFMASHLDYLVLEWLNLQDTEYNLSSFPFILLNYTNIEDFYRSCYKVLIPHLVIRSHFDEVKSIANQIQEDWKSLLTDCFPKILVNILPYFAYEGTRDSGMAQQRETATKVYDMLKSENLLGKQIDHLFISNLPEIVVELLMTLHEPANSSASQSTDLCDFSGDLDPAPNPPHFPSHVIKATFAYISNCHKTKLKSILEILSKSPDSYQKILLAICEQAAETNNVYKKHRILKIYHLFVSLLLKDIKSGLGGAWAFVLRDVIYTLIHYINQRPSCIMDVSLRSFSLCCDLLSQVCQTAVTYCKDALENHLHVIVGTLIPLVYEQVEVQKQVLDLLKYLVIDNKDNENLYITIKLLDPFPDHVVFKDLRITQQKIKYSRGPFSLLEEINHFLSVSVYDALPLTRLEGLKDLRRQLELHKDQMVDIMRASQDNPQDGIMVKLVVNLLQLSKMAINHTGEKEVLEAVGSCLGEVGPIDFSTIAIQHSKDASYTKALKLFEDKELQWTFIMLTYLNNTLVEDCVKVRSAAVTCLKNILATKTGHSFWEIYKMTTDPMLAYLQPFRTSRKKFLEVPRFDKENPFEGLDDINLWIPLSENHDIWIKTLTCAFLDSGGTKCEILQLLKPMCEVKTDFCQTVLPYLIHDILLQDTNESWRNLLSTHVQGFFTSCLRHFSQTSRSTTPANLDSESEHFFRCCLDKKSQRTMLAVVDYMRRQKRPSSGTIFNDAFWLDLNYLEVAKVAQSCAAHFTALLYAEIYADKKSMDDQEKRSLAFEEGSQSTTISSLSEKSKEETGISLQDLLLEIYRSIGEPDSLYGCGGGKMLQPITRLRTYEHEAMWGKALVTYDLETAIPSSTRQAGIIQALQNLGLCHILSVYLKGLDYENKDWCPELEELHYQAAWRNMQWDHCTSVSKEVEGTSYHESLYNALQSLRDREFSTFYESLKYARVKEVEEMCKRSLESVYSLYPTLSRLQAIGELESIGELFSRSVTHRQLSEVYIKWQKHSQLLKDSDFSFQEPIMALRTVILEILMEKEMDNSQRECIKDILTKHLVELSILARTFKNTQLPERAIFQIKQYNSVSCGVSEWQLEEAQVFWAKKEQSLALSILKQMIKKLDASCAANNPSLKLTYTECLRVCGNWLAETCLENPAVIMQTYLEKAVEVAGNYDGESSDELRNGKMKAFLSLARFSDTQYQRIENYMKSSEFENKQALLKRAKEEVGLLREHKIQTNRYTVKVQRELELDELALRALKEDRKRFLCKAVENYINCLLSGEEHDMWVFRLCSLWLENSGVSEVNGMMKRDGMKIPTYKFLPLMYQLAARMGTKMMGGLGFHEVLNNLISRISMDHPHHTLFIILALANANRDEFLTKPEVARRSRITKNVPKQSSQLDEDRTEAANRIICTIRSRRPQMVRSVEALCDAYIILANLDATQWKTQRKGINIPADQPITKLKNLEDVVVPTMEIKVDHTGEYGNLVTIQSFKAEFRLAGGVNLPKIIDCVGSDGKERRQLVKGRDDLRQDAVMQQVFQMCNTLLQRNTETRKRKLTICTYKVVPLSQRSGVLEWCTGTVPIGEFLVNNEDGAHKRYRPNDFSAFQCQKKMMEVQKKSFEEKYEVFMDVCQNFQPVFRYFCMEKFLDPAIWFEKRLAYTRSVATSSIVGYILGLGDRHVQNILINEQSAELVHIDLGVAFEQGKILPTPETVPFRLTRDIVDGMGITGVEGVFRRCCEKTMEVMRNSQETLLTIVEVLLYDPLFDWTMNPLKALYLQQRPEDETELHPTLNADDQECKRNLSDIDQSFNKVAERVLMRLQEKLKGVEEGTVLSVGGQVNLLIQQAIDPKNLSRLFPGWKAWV
Could you please report measured IC50 for the items listed next?
Response body: numeric value in nM, unit text excluded.

// query Which measured IC50 value corresponds to CC(C)n1c(=O)n(C)c2nnc3cc(F)c(-c4ccc(COCCN5CCCCC5)nc4)cc3c21 [Example 7] ?
// result 274

// query Which IC50 value belongs to CC(C)n1c(=O)n(C)c2nnc3cc(F)c(-c4ccc(OCCCN5CC6CC6C5)nc4)cc3c21 (stereo not drawn) [Example 16] ?
// result 18.5

// query Please look up its IC50: CC(C)n1c(=O)n(C)c2nnc3cc(F)c(-c4ccc(COCCN(C)C)nc4)cc3c21 [Example 6]
// result 71

// query # input compound: CC(C)n1c(=O)n(C)c2nnc3cc(F)c(-c4ccc(OCCCN(C)C)nc4)cc3c21 [Example 2] ; wanted: its IC50
// result 270

// query Would you kindly share the measured IC50 for CC(C)n1c(=O)n(C)c2nnc3cc(F)c(-c4ccc(OCCCN5CCCCC5)nc4)cc3c21 [Example 1] ?
// result 1.5

// query Report IC50 for CC(C)n1c(=O)n(C)c2nnc3cc(F)c(-c4ccc(OCCCN5CCC(F)CC5)nc4)cc3c21 [Example 13] please.
// result 27

// query What does the data say about its IC50? Entry: CC(C)n1c(=O)n(C)c2nnc3cc(F)c(-c4ccc(OCCCN5CCCC5)nc4)cc3c21 [Example 3]
// result 11

// query Recorded IC50 for CN(C)CCCOc1ccc(-c2ccc3nnc4c(c3c2)n(C2CCOCC2)c(=O)n4C)cn1 [compound 1] , please?
// result 112

// query Returns the measured IC50 for the input compound. Input: CC(C)n1c(=O)n(C)c2nnc3cc(F)c(-c4ccc(COCCN5CC6CC6C5)nc4)cc3c21 (stereo not drawn) [Example 11]
// result 18

---

So I've got a bunch of compounds here, and I need their IC50 values.
molecular target: ATM (Homo sapiens (Human), UniProt Q13315)
Sequence (Q13315 whole entry, looked up): as the sequence (Q13315 whole entry, looked up) above
Just the number please, in nM, no unit attached.

// query Look at this compound and give its reported IC50. CC(C)n1c(=O)n(C)c2nnc3cc(F)c(-c4ccc(COCCN5CCCCC5)nc4)cc3c21 [Example 7]
// result 26

// query Please give the measured IC50 for this compound: CC(C)n1c(=O)n(C)c2nnc3cc(F)c(-c4ccc(OCCCN5CCCC5)nc4)cc3c21 [Example 3]
// result 4.8

// query # input compound: CN(C)CCCOc1ccc(-c2ccc3nnc4c(c3c2)n(C2CCOCC2)c(=O)n4C)cn1 [compound 1] ; wanted: its IC50
// result 2.9

---

target: P-glycoprotein (Pgp) (Homo sapiens (Human), UniProt P08183); assay: MDCK-MDR1 Pgp assessment; details: human
measurement name: efflux ratio at 2 h, 1 μM
Reply briefly: the number, and no unit.

// query For the compound "CN(C)CCCOc1ccc(-c2ccc3nnc4c(c3c2)n(C2CCOCC2)c(=O)n4C)cn1" , what efflux ratio at 2 h, 1 μM is on record?
// result 5.6

---

measurement name: IC50 (nM)
Write the value in nM as a bare number.

// query What IC50 appears in the records for this molecule with ATM (Homo sapiens (Human))? CC(C)n1c(=O)n(C)c2nnc3cc(F)c(-c4ccc(COCCN5CC6CC6C5)nc4)cc3c21 (stereo not shown)
// result 37

// query For ATM (Homo sapiens (Human)), provide IC50 of CN(C)CC1CCN(c2ccc(-c3cc4c(cc3F)nnc3c4n(C4CCOCC4)c(=O)n3C)cn2)C1 (stereo not shown) please.
// result 97
